// reported fAUC/dose for each item listed
# Test system: Mus musculus
# protocol.description: Dose normalized unbound AUC in C57Bl/6J mouse at 50 mg/kg, po administered via gavage as single dose by LC-MS/MS analysis
# Format: ADME, organism-based
# run.parameters: in vivo
measured.quantity: fAUC/dose

[[record]]
smiles = "COc1ccc(-c2ccccc2-c2csc(N(C(=O)[C@@H](CC(=O)O)CC(C)C)C3CC3)n2)cn1"
target_under_test = "Mus musculus"
measured_quantity = "fAUC/dose"
test_result = "4.7 µM·min"

[[record]]
smiles = "CC(C)C[C@H](CC(=O)O)C(=O)N(c1nc(-c2ccccc2-c2ccc(-n3cccn3)nc2)cs1)C1CC1"
target_under_test = "Mus musculus"
measured_quantity = "fAUC/dose"
test_result = "3.3 µM·min"

[[record]]
smiles = "COc1ccc(-c2ccccc2-c2csc(N(C(=O)[C@@H](CC(=O)O)CC3CCCC3)C3CC3)n2)cn1"
target_under_test = "Mus musculus"
measured_quantity = "fAUC/dose"
test_result = "2.1 µM·min"

[[record]]
smiles = "CN(C(=O)[C@@H](CC(=O)O)Cc1ccccc1)c1nc(-c2ccccc2Cl)cs1"
target_under_test = "Mus musculus"
measured_quantity = "fAUC/dose"
test_result = "2 µM·min"


* * *

# protocol.description: Octanol-PBS buffer partition coefficient, log D of the compound at pH 7.4 by HPLC method
measured.quantity: logD

[[record]]
smiles = "COc1ccc(-c2ccccc2-c2csc(N(C(=O)[C@@H](CC(=O)O)CC(C)C)C3CC3)n2)cn1"
test_result = 2.2

[[record]]
smiles = "CN(C(=O)[C@@H](CC(=O)O)CC1CCOCC1)c1nc(-c2ccccc2Cl)cs1"
test_result = "1.27 to 1.3"

[[record]]
smiles = "CC(C)C[C@H](CC(=O)O)C(=O)N(c1nc(-c2ccccc2-c2ccc(-n3cccn3)nc2)cs1)C1CC1"
test_result = 2.4

[[record]]
smiles = "COc1ccc(-c2ccc(Cl)cc2-c2csc(N(C(=O)[C@@H](CC(=O)O)Cc3ccco3)C3CC3)n2)cn1"
test_result = 2.5

[[record]]
smiles = "CN(C(=O)[C@@H](CC(=O)O)Cc1ccccc1)c1nc(-c2ccccc2Cl)cs1"
test_result = "2.13 to 2.3"

[[record]]
smiles = "COc1ccc(-c2ccccc2-c2csc(N(C(=O)[C@@H](CC(=O)O)CC3CCCC3)C3CC3)n2)cn1"
test_result = 2.6

[[record]]
smiles = "O=C(O)C[C@@H](Cc1ccccc1)C(=O)N(c1nc(-c2ccccc2Cl)cs1)C1CC1"
test_result = 2.3

[[record]]
smiles = "O=C(O)C[C@@H](Cc1ccccc1)C(=O)N(c1nc(-c2cc(Cl)ccc2Cl)cs1)C1CC1"
test_result = 3

[[record]]
smiles = "CC(C)[C@H](C(=O)Nc1nccs1)c1ccc(Cl)cc1"
test_result = "3.9 to 4.08"

[[record]]
smiles = "CN(C(=O)[C@H](CC(=O)O)Cc1ccccc1)c1nc(-c2ccccc2Cl)cs1"
test_result = 2.3

[[record]]
smiles = "CN(C(=O)[C@@H](CC(=O)O)CC1CCCC1)c1nc(-c2ccccc2Cl)cs1"
test_result = "2.74 to 2.9"

[[record]]
smiles = "O=C(O)C[C@@H](CC1CCCC1)C(=O)N(c1nc(-c2ccccc2-c2ccc(-n3cccn3)nc2)cs1)C1CC1"
test_result = 3.1

